src = PubChem BioAssay (NCATS)

Listed molecules paired with reported activity
EXPERIMENTAL TARGET: Catechol O-methyltransferase (Homo sapiens) (UniProt P21964)
Sequence (P21964 whole entry, looked up): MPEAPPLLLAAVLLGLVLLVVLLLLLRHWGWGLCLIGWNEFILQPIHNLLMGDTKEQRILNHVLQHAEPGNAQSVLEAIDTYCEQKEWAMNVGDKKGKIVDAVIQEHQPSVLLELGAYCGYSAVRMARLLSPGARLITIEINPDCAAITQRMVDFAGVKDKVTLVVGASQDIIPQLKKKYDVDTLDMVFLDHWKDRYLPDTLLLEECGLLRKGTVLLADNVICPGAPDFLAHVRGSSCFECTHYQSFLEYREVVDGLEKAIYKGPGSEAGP
TEST DETAILS: Confirmatory Screen for Target Class Profiling of Small Molecule Inhibitors of Methyltransferases (AID 1745852)
CONDITION: MTase-Glo luminescence, SAH detection, recombinant enzyme; measured here: COMT max response; stronger effect = lower value
READOUT: activity (%)

> print(dat)
                                   molecule                       experimental.target   readout  recorded.result
1  CC(=O)c1c(C)cccc1O[C@@H]1O[C@H](CO)[C@@H](O)[C@H](O)[C@H]1O  Catechol O-methyltransferase (Homo sapiens) (UniProt P21964)  activity            -68.9
2  O=C(O)CC(CCc1ccccc1)OC1OC(CO)C(O)C(O)C1O (configuration not stated)  Catechol O-methyltransferase (Homo sapiens) (UniProt P21964)  activity            -76.5
3        O=C(NCC(=O)N1CCCC1)Nc1ccc2ccccc2c1  Catechol O-methyltransferase (Homo sapiens) (UniProt P21964)  activity             1.31
4  C=C(C(=O)O)[C@H]1C[C@]2(C)C(=O)CC[C@]23O[C@H]1C[C@@H]3C  Catechol O-methyltransferase (Homo sapiens) (UniProt P21964)  activity            -84.1
5  CC(=O)OC1CC(=O)C2(C)C3CC4=C(OC(C)CC4=O)OC3(C)CCC2C1(C)C (configuration not stated)  Catechol O-methyltransferase (Homo sapiens) (UniProt P21964)  activity            -40.9
6      COc1ccccc1CN[C@H]1CCCN[C@H]1c1ccccc1  Catechol O-methyltransferase (Homo sapiens) (UniProt P21964)  activity            0.295
7  CC1=CCC(O)C2(C)CCC3C(C)C(=O)OC3C12 (configuration not stated)  Catechol O-methyltransferase (Homo sapiens) (UniProt P21964)  activity              -77

----------
Tested on: HEK293
TEST DETAILS: Cytotoxic Profiling of Annotated Libraries Using Quantitative High-Throughput Screening (AID 1296008); further: on the % scale 0 is the no-effect control and ±100 the full control effect; nearly all actives have a fitted effect of over 60% in size
CONDITION: Five cell lines viability, CellTiter-Glo ATP luminescence, 48-72 h; stronger effect = lower value
Records with an inconclusive call do not appear.
Reported max response values for the following compounds.
READOUT: max response (%)

COMPOUND	RECORDED RESULT
CC(C)=CCC(O)[C@](C)(O)C1[C@H](O)C[C@@]2(C)C3CC=C4C(C[C@H](O)[C@@H](O[C@@H]5O[C@H](CO)[C@@H](O)[C@H](O)[C@H]5O)C4(C)C)[C@]3(C)C(=O)C[C@]12C (some centres undefined)	-6.78
COc1ccc(OC2OC(CO[C@@H]3O[C@@H](C)[C@H](O)[C@@H](O)[C@H]3O)C(O)C(O)C2O)cc1OC (some centres undefined)	-0.0887
CC12CC(O)C(O)C=C1c1cc(O)cc(O)c1C(=O)O2 (centres undefined)	-7.31
CC(O)C(O)/C=C/C=C/C(=O)O[C@@H]1C=C(C(=O)O)[C@](O)(CO)[C@@]2(C)CCCC(C)(C)[C@H]12 (some centres undefined)	-10.2

----------
TEST DETAILS: P-glycoprotein substrates identified in KB-8-5-11 adenocarcinoma cell line, qHTS therapeutic library screen (AID 1346987); further: nearly all actives have a fitted effect of over 65% in size
CONDITION: KB-8-5-11 (P-gp overexpressing) viability, CellTiter-Glo, 72 h; series mostly up to 44.5 µM
Inconclusive results are not listed. Calls of active or inactive are those of the source. Calls come from the whole dose curve; as a rule, active = well fitted inhibition curve with a large enough effect; inconclusive = small, poorly fitted or top-dose-only effect; inactive = flat fitted curve, though single readings scatter.
READOUT: outcome

MOLECULE	RECORDED RESULT
C/C=C(\C)C(=O)OC[C@H]1O[C@@H](O[C@H]2[C@@H](O[C@H]3O[C@H](CO)[C@@H](O)[C@H](O)[C@H]3O[C@@H]3O[C@H](CO)[C@@H](O)[C@H](O)[C@H]3O)O[C@H](COC(=O)/C(C)=C/C)[C@@H](O)[C@@H]2O)[C@H](O)[C@@H](O)[C@@H]1O	inactive [at 9.29 µM]
CC1(C(=O)O)CC[C@]2(C(=O)OC3OC(CO)C(O)C(O)C3O)CC[C@]3(C)C(=CCC4[C@@]5(C)CC[C@H](OC6OCC(O)C(O)C6OC6OC(CO)C(O)C(O)C6O)C(C)(C)C5CC[C@]43C)C2C1 (stereo partly drawn)	inactive [at 9.29 µM]
C=C(C)C1CCC2(C(=O)OC3OC(COC4OC(CO)C(O)C(O)C4O)C(OC4OC(C)C(O)C(O)C4O)C(O)C3O)CCC3(C(=O)O)C(CCC4C5(C)CCC(=O)C(C)(C)C5CCC43C)C12 (stereo not drawn)	inactive [at 9.29 µM]
